- Target desc: Serotonin 5-HT2B (Homo sapiens, UniProt P41595)
- Sequence (P41595 whole entry): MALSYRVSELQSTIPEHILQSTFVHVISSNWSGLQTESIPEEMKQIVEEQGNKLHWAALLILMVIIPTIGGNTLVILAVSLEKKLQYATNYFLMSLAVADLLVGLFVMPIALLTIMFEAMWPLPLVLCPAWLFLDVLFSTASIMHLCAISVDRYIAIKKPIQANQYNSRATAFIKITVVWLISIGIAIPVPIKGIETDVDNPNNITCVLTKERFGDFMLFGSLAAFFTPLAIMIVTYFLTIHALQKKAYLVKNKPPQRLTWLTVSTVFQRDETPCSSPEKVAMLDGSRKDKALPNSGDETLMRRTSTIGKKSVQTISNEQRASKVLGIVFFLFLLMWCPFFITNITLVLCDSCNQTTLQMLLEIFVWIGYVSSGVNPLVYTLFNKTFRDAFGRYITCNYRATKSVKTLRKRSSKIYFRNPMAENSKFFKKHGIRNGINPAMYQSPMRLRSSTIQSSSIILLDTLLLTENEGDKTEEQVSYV
pKi: −log10 of the molar value.

Compound: CCN(CCCNC(=O)c1ccc(-c2ccsc2)cc1)CCNC(=O)c1cc(Br)cc(OC)c1OC [21g]
pKi: 6.72

Compound: CCN(CCCNC(=O)c1cn2ccccc2n1)CCNC(=O)c1cc(Br)cc(OC)c1OC [21e]
pKi: 6.35

Compound: CCCN(CCCNC(=O)c1ccc(-c2cccs2)cc1)CCNC(=O)c1cc(Br)cc(OC)c1OC [20a]
pKi: 6.77

Compound: CCN(CCCNC(=O)c1ccc2ccccc2c1)CCNC(=O)c1cc(Br)cc(OC)c1OC [21a]
pKi: 6.93

Compound: CCN(CCCNC(=O)c1ccsc1)CCNC(=O)c1cc(Br)cc(OC)c1OC [21i]
pKi: 6.57

Compound: CCN(CCCNC(=O)c1cc2ccccc2[nH]1)CCNC(=O)c1cc(Br)cc(OC)c1OC [21d]
pKi: 6.74

Compound: CCN(CCCNC(=O)c1ccc(-c2ccncc2)cc1)CCNC(=O)c1cc(Br)cc(OC)c1OC [21c]
pKi: 6.80

Compound: CCN(CCCNC(=O)c1cc2ccccc2n1C)CCNC(=O)c1cc(Br)cc(OC)c1OC [21j]
pKi: 6.74

Compound: CCN(CCCNC(=O)c1ccc(-c2cccs2)cc1)CCNC(=O)c1cc(Br)cc(OC)c1OC [9a]
pKi: 6.73

----------
- Target desc: Adrenergic alpha1B (Homo sapiens, UniProt P35368)
- Sequence (P35368 whole entry): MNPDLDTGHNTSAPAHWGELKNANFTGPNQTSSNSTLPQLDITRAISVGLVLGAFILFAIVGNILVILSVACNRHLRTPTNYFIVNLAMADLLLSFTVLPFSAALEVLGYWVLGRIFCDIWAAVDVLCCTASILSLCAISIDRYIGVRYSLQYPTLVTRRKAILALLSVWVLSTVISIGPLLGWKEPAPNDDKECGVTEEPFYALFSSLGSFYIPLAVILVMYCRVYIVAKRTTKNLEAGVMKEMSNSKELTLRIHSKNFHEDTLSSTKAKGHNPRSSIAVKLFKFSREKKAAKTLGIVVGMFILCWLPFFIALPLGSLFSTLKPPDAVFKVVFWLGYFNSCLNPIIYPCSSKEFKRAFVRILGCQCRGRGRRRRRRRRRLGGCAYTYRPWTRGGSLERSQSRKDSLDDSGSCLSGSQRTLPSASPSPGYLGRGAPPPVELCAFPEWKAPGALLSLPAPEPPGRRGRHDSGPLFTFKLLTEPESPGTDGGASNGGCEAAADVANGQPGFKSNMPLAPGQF
- Experiment description: PDSP binding screen
- Condition summary: read-out: Ki (nM) or % inhibition at 10 µM: alpha1B
Below: a set of entries, each annotated with reported inhibition at 10 µM.

Compound: CCN(CCCNC(=O)c1ccsc1)CCNC(=O)c1cc(Br)cc(OC)c1OC [21i]
inhibition at 10 µM: < 50%
--
Compound: CCN(CCCNC(=O)c1cn2ccccc2n1)CCNC(=O)c1cc(Br)cc(OC)c1OC [21e]
inhibition at 10 µM: < 50%
--
Compound: CCN(CCCNC(=O)c1ccc(-c2ccncc2)cc1)CCNC(=O)c1cc(Br)cc(OC)c1OC [21c]
inhibition at 10 µM: < 50%
--
Compound: CCN(CCCNC(=O)c1cc2ccccc2n1C)CCNC(=O)c1cc(Br)cc(OC)c1OC [21j]
inhibition at 10 µM: < 50%

----------
pKi: −log10 of the molar value.
# pKi measurements, system: Dopamine D5 (Homo sapiens)
# Sequence (P21918 whole entry): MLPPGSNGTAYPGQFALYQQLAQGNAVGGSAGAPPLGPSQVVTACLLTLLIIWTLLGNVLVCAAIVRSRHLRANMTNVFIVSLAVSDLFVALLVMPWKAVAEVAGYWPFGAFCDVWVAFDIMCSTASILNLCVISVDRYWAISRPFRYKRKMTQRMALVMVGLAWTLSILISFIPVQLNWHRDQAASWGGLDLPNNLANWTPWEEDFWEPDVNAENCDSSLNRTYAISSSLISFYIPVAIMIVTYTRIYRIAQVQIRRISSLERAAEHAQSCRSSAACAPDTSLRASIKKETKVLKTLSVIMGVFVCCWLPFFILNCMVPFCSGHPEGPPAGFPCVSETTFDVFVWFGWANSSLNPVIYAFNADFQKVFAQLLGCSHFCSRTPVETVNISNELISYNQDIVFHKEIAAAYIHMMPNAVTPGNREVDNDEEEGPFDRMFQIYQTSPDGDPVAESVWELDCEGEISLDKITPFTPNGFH

Compound: CCN(CCCNC(=O)c1ccc(-c2ccncc2)cc1)CCNC(=O)c1cc(Br)cc(OC)c1OC [21c]
Target desc: Dopamine D5 (Homo sapiens)
Reading qualifier: <
pKi: 5.00

Compound: CCN(CCCNC(=O)c1ccc(-c2ccsc2)cc1)CCNC(=O)c1cc(Br)cc(OC)c1OC [21g]
Target desc: Dopamine D5 (Homo sapiens)
Reading qualifier: =
pKi: 5.06

Compound: CCN(CCCNC(=O)c1ccc(-c2cccs2)cc1)CCNC(=O)c1cc(Br)cc(OC)c1OC [9a]
Target desc: Dopamine D5 (Homo sapiens)
Reading qualifier: =
pKi: 5.83

----------
- Target desc: Dopamine D1 (Homo sapiens, UniProt P21728)
- Sequence (P21728 whole entry): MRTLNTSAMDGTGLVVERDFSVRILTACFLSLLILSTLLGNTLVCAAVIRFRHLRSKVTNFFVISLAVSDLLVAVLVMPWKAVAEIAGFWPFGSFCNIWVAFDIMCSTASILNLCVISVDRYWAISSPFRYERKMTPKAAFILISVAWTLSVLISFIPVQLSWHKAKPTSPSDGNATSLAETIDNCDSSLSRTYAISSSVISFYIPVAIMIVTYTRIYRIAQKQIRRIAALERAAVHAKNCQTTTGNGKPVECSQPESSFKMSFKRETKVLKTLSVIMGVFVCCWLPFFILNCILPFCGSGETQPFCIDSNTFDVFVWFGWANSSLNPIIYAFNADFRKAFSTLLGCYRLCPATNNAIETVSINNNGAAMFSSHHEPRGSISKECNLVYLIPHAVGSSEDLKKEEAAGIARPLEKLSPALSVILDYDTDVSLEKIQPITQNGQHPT
- Experiment description: PDSP binding screen
pKi: −log10 of the molar value.
Below: a set of entries, each annotated with reported pKi.

Compound: CCN(CCCNC(=O)c1ccc(-c2cccs2)cc1)CCNC(=O)c1cc(Br)cc(OC)c1OC
pKi: 5.62
//
Compound: CCCN(CCCNC(=O)c1ccc(-c2cccs2)cc1)CCNC(=O)c1cc(Br)cc(OC)c1OC [20a]
pKi: 5.37
//
Compound: CCN(CCCNC(=O)c1ccc(-c2ccsc2)cc1)CCNC(=O)c1cc(Br)cc(OC)c1OC [21g]
pKi: 5.70
